All values here come from ChEMBL document CHEMBL3272017.

# Test system: Mus musculus
# procedure-summary: Reversal of reserpine-induced ptosis in po dosed mouse
# Type: functional
# measurement-parameters: Mus musculus, po; read-out: ED50
quantity: ED50

1) CN(C)CCCN1c2ccccc2CCc2ccccc21.Cl [IMIPRAMINE HYDROCHLORIDE] = > 320 mg/kg

Next compound, ED50 to be filled in.
Query block: Query for Mus musculus: what ED50 does the record show for CC(C)NCC(O)c1ccc(O)c(NS(C)(=O)=O)c1 (stereo not given) ?
Result block: 16.5 mg/kg

* * *

# procedure-summary: Activity at alpha-adrenoceptor in rat seminal vesicle assessed as potency for producing 50% of that of l-epinephrine-induced contraction relative to soterenol
# Type: tissue-based
quantity: fold change (FC)
Answer as a number with no unit attached.

As a guide, the following entries are already answered.
1. CS(=O)(=O)Nc1cc(C(O)CNC2CC2)cc(Cl)c1O.Cl (configuration not stated) = 4.9
2. CC[C@H](NC1CC1)[C@H](O)c1ccc(O)c(NS(C)(=O)=O)c1.Cl (relative stereo) = 0
3. Cc1cc(C(O)CNC2CC2)cc(NS(C)(=O)=O)c1O.Cl (configuration not stated) = 8.7
4. CS(=O)(=O)Nc1cc(C(O)CNC2CC2)ccc1O.Cl (stereo in doubt; 44) = 68.8
5. CS(=O)(=O)Nc1cc(C(O)CNC2CC2)ccc1O.Cl (stereo in doubt; 46) = 0

Query block: Need fold change (FC) of CS(=O)(=O)Nc1cc(C(O)CNC2CC2)ccc1O.Cl (single isomer, unassigned; (-)) , thanks.
Result block: 108

Query block: What value of fold change (FC) has been reported for the following molecule? CC(C)(Cc1ccccc1)NCC(O)c1ccc(O)c(NS(C)(=O)=O)c1.Cl (configuration not stated) [ZINTEROL HYDROCHLORIDE]
Result block: 0
